Target: HLA-A*02:01 (Homo sapiens, UniProt P04439, D140Y/D185E/D98H/E176V/E277Q/G131W/G231S/I119V/I121R/I166T/I218V/L300P/L318F/N151K/N90K/P208A/P217A/Q86G/Q94H/R138H/R169H/T345S)
Assay: MHC binding assay: UV-ligand exchange and β2m ELISA (peptide exchange yield, Table 7)
Conditions: binding of HLA-class I restricted peptides to HLA-A*02:01, UV-ligand exchange
parameter: Peptide exchange (MHC class I binding score, peptide exchange yield)

- substance: "180 (RLYEEEIRI; listed as Homo sapiens) [compound 180]"
  endpoint_result: "+++ (≥50% = +++)"
- substance: "199 (SVADLAHVL; listed as Homo sapiens) [compound 199]"
  endpoint_result: "++ (≥20% = ++)"
- substance: "30 (IITEVITRL; listed as Homo sapiens) [compound 30]"
  endpoint_result: "+++ (≥50% = +++)"
- substance: "70 (GLTEKTVLV; listed as Homo sapiens) [compound 70]"
  endpoint_result: "++ (≥20% = ++)"
- substance: "34 (TLNTLDINL; listed as Homo sapiens) [compound 34]"
  endpoint_result: "+++ (≥50% = +++)"
- substance: "82 (ILAEEPIYIRV; listed as Homo sapiens) [compound 82]"
  endpoint_result: "+++ (≥50% = +++)"
- substance: "24 (KVWSDVTPL; listed as Homo sapiens) [compound 24]"
  endpoint_result: "+++ (≥50% = +++)"
- substance: "130 (QLYGSAITL; listed as Homo sapiens) [compound 130]"
  endpoint_result: "+++ (≥50% = +++)"
- substance: "204 (SEWGSPHAAVP; listed as Homo sapiens) [compound 204]"
  endpoint_result: "+++ (≥50% = +++)"

###

Target: HLA-A*02:01 (Homo sapiens, UniProt P04439, D140Y/D185E/D98H/E176V/E277Q/G131W/G231S/I119V/I121R/I166T/I218V/L300P/L318F/N151K/N90K/P208A/P217A/Q86G/Q94H/R138H/R169H/T345S)
Experiment: MHC binding assay: UV-ligand exchange and β2m ELISA (peptide exchange yield, Table 7)
Conditions: binding of HLA-class I restricted peptides to HLA-A*02:01, UV-ligand exchange
parameter: Peptide exchange (MHC class I binding score, peptide exchange yield)

- substance: "89 (SLAETIFIV; listed as Homo sapiens) [compound 89]"
  endpoint_result: "+++ (≥50% = +++)"
- substance: "280 (HLWGHALFL; listed as Homo sapiens) [compound 280]"
  endpoint_result: "+++ (≥50% = +++)"
- substance: "211 (LLTTVLINA; listed as Homo sapiens) [compound 211]"
  endpoint_result: "+++ (≥50% = +++)"
- substance: "66 (AMFPDTIPRV; listed as Homo sapiens) [compound 66]"
  endpoint_result: "++ (≥20% = ++)"
- substance: "49 (KLIGNIHGNEV; listed as Homo sapiens) [compound 49]"
  endpoint_result: "++ (≥20% = ++)"

###

Target: HLA-A*02:01 (Homo sapiens, UniProt P04439, D140Y/D185E/D98H/E176V/E277Q/G131W/G231S/I119V/I121R/I166T/I218V/L300P/L318F/N151K/N90K/P208A/P217A/Q86G/Q94H/R138H/R169H/T345S)
Assay: MHC binding assay: UV-ligand exchange and β2m ELISA (peptide exchange yield, Table 7)
Conditions: binding of HLA-class I restricted peptides to HLA-A*02:01, UV-ligand exchange
parameter: Peptide exchange (MHC class I binding score, peptide exchange yield)

- substance: "235 (SLLNQPKAV; listed as Homo sapiens) [compound 235]"
  endpoint_result: "++ (≥20% = ++)"
- substance: "265 (FLLDKPQDLSI; listed as Homo sapiens) [compound 265]"
  endpoint_result: "+++ (≥50% = +++)"
- substance: "272 (FVMEGEPPKL; listed as Homo sapiens) [compound 272]"
  endpoint_result: "++ (≥20% = ++)"
- substance: "40 (KIWEELSVLEV; listed as Homo sapiens) [compound 40]"
  endpoint_result: "+++ (≥50% = +++)"
- substance: "151 (DISKRIQSL; listed as Homo sapiens) [compound 151]"
  endpoint_result: "++ (≥20% = ++)"
- substance: "71 (HMSGKLTNV; listed as Homo sapiens) [compound 71]"
  endpoint_result: "++ (≥20% = ++)"
- substance: "101 (SLLEVNEASSV; listed as Homo sapiens) [compound 101]"
  endpoint_result: "+++ (≥50% = +++)"
- substance: "64 (SLYAGSNNQV; listed as Homo sapiens) [compound 64]"
  endpoint_result: "++ (≥20% = ++)"
- substance: "226 (SLAGNLQEL; listed as Homo sapiens) [compound 226]"
  endpoint_result: "+++ (≥50% = +++)"
- substance: "260 (ALNESLVEC; listed as Homo sapiens) [compound 260]"
  endpoint_result: "+++ (≥50% = +++)"
- substance: "224 (LLFDWSGTGRADA; listed as Homo sapiens) [compound 224]"
  endpoint_result: "+++ (≥50% = +++)"
- substance: "86 (SLFSNIESV; listed as Homo sapiens) [compound 86]"
  endpoint_result: "+++ (≥50% = +++)"
- substance: "62 (SLVENIHVL; listed as Homo sapiens) [compound 62]"
  endpoint_result: "+++ (≥50% = +++)"
- substance: "245 (ALLEEEEGV; listed as Homo sapiens) [compound 245]"
  endpoint_result: "++ (≥20% = ++)"
- substance: "139 (IILENIQSL; listed as Homo sapiens) [compound 139]"
  endpoint_result: "+++ (≥50% = +++)"
- substance: "192 (TLLPSSGLVTL; listed as Homo sapiens) [compound 192]"
  endpoint_result: "++ (≥20% = ++)"
- substance: "168 (VIFEGEPMYL; listed as Homo sapiens) [compound 168]"
  endpoint_result: "+++ (≥50% = +++)"
- substance: "122 (SIIDTELKV; listed as Homo sapiens) [compound 122]"
  endpoint_result: "+++ (≥50% = +++)"
- substance: "79 (TVLEEIGNRV; listed as Homo sapiens) [compound 79]"
  endpoint_result: "++ (≥20% = ++)"
- substance: "184 (ALDSTIAHL; listed as Homo sapiens) [compound 184]"
  endpoint_result: "++ (≥20% = ++)"
- substance: "157 (ILQDGQFLV; listed as Homo sapiens) [compound 157]"
  endpoint_result: "++ (≥20% = ++)"
- substance: "145 (ALEEKLENV; listed as Homo sapiens) [compound 145]"
  endpoint_result: "+++ (≥50% = +++)"
- substance: "244 (NVAEIVIHI; listed as Homo sapiens) [compound 244]"
  endpoint_result: "+++ (≥50% = +++)"
- substance: "223 (ALHPVQFYL; listed as Homo sapiens) [compound 223]"
  endpoint_result: "+++ (≥50% = +++)"
- substance: "33 (TLDRNSLYV; listed as Homo sapiens) [compound 33]"
  endpoint_result: "++ (≥20% = ++)"
- substance: "11 (LLDPKTIFL; listed as Homo sapiens) [compound 11]"
  endpoint_result: "+++ (≥50% = +++)"
- substance: "167 (LVVDEGSLVSV; listed as Homo sapiens) [compound 167]"
  endpoint_result: "+++ (≥50% = +++)"
- substance: "147 (GLLSALENV; listed as Homo sapiens) [compound 147]"
  endpoint_result: "+++ (≥50% = +++)"
- substance: "25 (LLWGHPRVALA; listed as Homo sapiens) [compound 25]"
  endpoint_result: "+++ (≥50% = +++)"
- substance: "158 (YLDPLWHQL; listed as Homo sapiens) [compound 158]"
  endpoint_result: "+++ (≥50% = +++)"
- substance: "132 (ALLNNVIEV; listed as Homo sapiens) [compound 132]"
  endpoint_result: "+++ (≥50% = +++)"
- substance: "256 (FLNDIFERI; listed as Homo sapiens) [compound 256]"
  endpoint_result: "+++ (≥50% = +++)"
- substance: "148 (YLILSSHQL; listed as Homo sapiens) [compound 148]"
  endpoint_result: "+++ (≥50% = +++)"
- substance: "154 (AIIKEIQTV; listed as Homo sapiens) [compound 154]"
  endpoint_result: "++ (≥20% = ++)"
- substance: "281 (LLLESDPKVYSL; listed as Homo sapiens) [compound 281]"
  endpoint_result: "++ (≥20% = ++)"
- substance: "52 (TIGIPFPNV; listed as Homo sapiens) [compound 52]"
  endpoint_result: "++ (≥20% = ++)"
- substance: "94 (YLDEVAFML; listed as Homo sapiens) [compound 94]"
  endpoint_result: "+++ (≥50% = +++)"
- substance: "230 (KLLNMIFSI; listed as Homo sapiens) [compound 230]"
  endpoint_result: "+++ (≥50% = +++)"
